From: ChEMBL document CHEMBL1828617

tested on: Fasciola hepatica; assay: Antiparasitic activity against Fasciola hepatica infected in rat assessed as cure rate at 100 mg/kg, po administered as single dose measured after 6 days post treatment; assay type: functional, organism-based; set-up: dose 100 mg/kg
Active and inactive are the calls of the source. The calls are words filed in the database; no cut-off is given here.
Respond using exactly one of the listed classes: active, inactive

Q: In this assay, the call recorded for O=C(O)C1CCC2(CC1)OOC1(CCCCC1)OO2 was what?
A: active

Q: In this assay, the call recorded for O=C(O)c1ccc([C@H]2CC[C@]3(CC2)COC2(OO3)C3CC4CC(C3)CC2C4)cc1 (some centres not stated) was what?
A: active

Q: In this assay, the call recorded for O=C(O)C[C@H]1CC[C@]2(CC1)COC1(OO2)C2CC3CC(C2)CC1C3 (some centres not stated) was what?
A: active

Q: In this assay, the call recorded for O=C(O)c1ccc(C2CCC3(CC2)OOC2(O3)C3CC4CC(C3)CC2C4)cc1 (configuration not stated) was what?
A: active

Q: In this assay, the call recorded for O=C(O)[C@H]1CC[C@]2(CC1)OO[C@]1(O2)C2CC3CC(C2)CC1C3 was what?
A: inactive

Q: In this assay, the call recorded for O=C(O)C1CCC2(CC1)OOC1(OO2)C2CC3CC(C2)CC1C3 (configuration not stated) was what?
A: active

Q: In this assay, the call recorded for O=C(O)CC1CCC2(CC1)OOC1(OO2)C2CC3CC(C2)CC1C3 (configuration not stated) was what?
A: active

Q: In this assay, the call recorded for O=C(O)[C@H]1CC[C@]2(CC1)COC1(CCCCC1)OO2 was what?
A: active

Q: In this assay, the call recorded for O=C(O)CC1CCC2(CC1)OCC1(OO2)C2CC3CC(C2)CC1C3 (configuration not stated) was what?
A: inactive

Q: In this assay, the call recorded for O=C(O)[C@H]1CC[C@@]2(CC1)OOC1(CCCCC1)O2 was what?
A: inactive

Q: In this assay, the call recorded for O=C(O)C[C@H]1CC[C@]2(CC1)OOC1(O2)C2CC3CC(C2)CC1C3 (some centres not stated) was what?
A: active

Q: In this assay, the call recorded for O=C(O)CC1CCC2(CC1)OOC1(CCCCC1)OO2 was what?
A: inactive
